inhibition values by entry
protocolText: blockers of RIG-like receptor reporter activation – cell-based, Sendai virus stimulus, luciferase, 10K MLSCN set, TLR/RLR signaling modifier project, primary screen (AID 602276);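 further: firefly luciferase from ISG56 promoter only with Renilla not read in this screen; 0% = Sendai virus plus DMSO and 100% = medium plus DMSO without virus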
testContext: HEK293 RL24 IRF3 luciferase reporter, at 10 µM, stronger effect = higher value
The source made the active and inactive calls.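 How the source made its calls: active means inhibition at or above 50% at 10 µM; inactive means inhibition below 50%.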
quantityKind: inhibition

                                    compound              result
 0  CCc1nc(SCC(=O)NCc2ccco2)c2c3c(sc2n1)CCCC3    15.3% (inactive)
 1  CCOc1ccc(C(=O)CN2CCN(S(=O)(=O)c3ccc(OC)cc3)CC2)cc1   -2.61% (inactive)
 2  Cc1ccc(-n2c(Cn3cnc4ccccc43)nnc2SCC(=O)O)cc1    15.2% (inactive)
 3  CCOc1cc(S(=O)(=O)NCc2ccc3c(c2)OCO3)ccc1F    15.3% (inactive)
 4        c1ccc(-n2ncc3c(N4CCCCC4)ncnc32)cc1    49.8% (inactive)
 5      O=C(Cn1c(=O)sc2ccccc21)NCCOc1ccccc1F  0.0246% (inactive)
 6  CCOC(=O)C(NC(=O)c1ccccc1)(Nc1cc(C)on1)C(F)(F)F (stereo not given)    14.5% (inactive)
 7   CN(C)CCCn1c(N)c(C#N)c2nc(C#N)c(C#N)nc21    48.9% (inactive)
 8    CS(=O)(=O)c1ccc2nc(NC(=O)c3cccs3)sc2c1   -10.7% (inactive)
 9  O=S1(=O)CC(N2CCCCC2)C(N2CCCCC2)C1 (stereo not given)    15.3% (inactive)
10  CCOc1ccccc1NC(=O)CCN1CCN(S(=O)(=O)c2ccc(Br)cc2)CC1    12.6% (inactive)
11  O=C(c1ccco1)N1CCN(/C(=N/S(=O)(=O)c2cccs2)c2ccccc2Cl)CC1   -2.11% (inactive)
12     CCc1c(C)c2c(C)nn(-c3ccccc3)c2[nH]c1=O    6.95% (inactive)
13     CCCc1cc(=O)[nH]c(Nc2ccc(OC)c(Cl)c2)n1   -1.81% (inactive)
14       CCOCC(=O)Nc1nc2c(s1)C(=O)CC(C)(C)C2    12.5% (inactive)
15  CC(NS(=O)(=O)c1ccc(F)cc1)C(c1cccs1)N1CCN(C)CC1 (stereo not given)   0.176% (inactive)
16        COc1ccc(Nc2nc(-c3sc(N)nc3C)cs2)cc1   -13.1% (inactive)
17  O=C(c1ccc(-c2ccccc2)cc1)N1CCC(C(=O)N2CCCC2)CC1      16% (inactive)
18  CCOC(=O)Cn1c(CN2CCN(c3cccc(Cl)c3)CC2)nc2c1c(=O)[nH]c(=O)n2C    16.4% (inactive)
19  CC1CCN(C(=O)CSc2nnc(Cc3cc(=O)[nH]c(=O)[nH]3)n2-c2ccc(Cl)cc2)CC1    -3.8% (inactive)

---

# maps each entry to its inhibition
protocolText: inhibitors of TNFa-induced NFkB p65 translocation, primary screen, imaging, HUVEC, MLSMR starter and 10KST1 sets (AID 438);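 further: compound added about 3h40 before a 20 min TNFalpha stimulation; signal is the nuclear over cytoplasmic p65 intensity ratio per well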
testContext: HUVEC TNFa-induced p65 nuclear translocation; at 2 µM, stronger effect = higher value, 0% TNFa-plus-vehicle, 100% no-TNFa wells
quantityKind: inhibition (%)

                                    molecule  valueunit  measurednumber
 0         O=[n+]1c2c(n([O-])c3c1CCCC3)CCCC2          %             5.8
 1  CC1CCN(C(=O)CSCC(=O)Nc2nc(-c3cccs3)cs2)CC1          %            -3.4
 2         CCOC(=O)Cn1nc(-c2ccc(C)cc2)ccc1=O          %             -21
 3  Cc1cccc(C(OC(=O)c2ccco2)C(=O)NCc2ccccc2)n1 (stereo unspecified)          %           -15.3
 4     CCOC(=O)c1sc2nc(NC(=O)C(C)(C)C)sc2c1C          %            16.7
 5  COc1ccc(-c2noc(-c3ccccc3C(=O)Nc3cccnc3)n2)cc1OC          %            -5.7
 6  O=C(CSc1nc(O)c(Cc2ccccc2)c(=O)[nH]1)Nc1ccccc1          %             5.3
 7             c1cn(C23CC4CC(CC(C4)C2)C3)cn1          %             0.8
 8   CN1/C(=C\C(=O)Nc2cccnc2)c2ccccc2CC1(C)C          %              -5
 9  COc1ccc(CNC(=O)CN(C(=O)c2ccc(CN3CCOCC3)o2)C2CCCC2)cc1          %             5.5
10  COc1ccccc1NC(=O)CSc1nnc(Cc2cccn2C)n1-c1ccc(F)cc1          %            -7.5
11  CCOC(=O)N(C)c1ccc(C(O)(C(F)(F)F)C(F)(F)F)cc1          %            -8.6
12  CCOc1ccc(NC(=O)CSc2nnc(COc3c(C)cccc3C)o2)cc1          %             7.3
13  CCOC(=O)N1CCC(NC(=O)c2cc(C(=O)NC3CCCC3)ccc2CO)CC1          %             0.8
14               CCn1ncc(Cl)c1C(=O)Nc1ccncc1          %            -6.1
15   O=C(c1ccc2c(c1)c(=O)oc1ccccc12)N1CCCCC1          %             0.3
16  Cn1c(C(=O)OCC(=O)NCC2CCCO2)cc2sccc21 (stereo unspecified)          %              -1
17            COc1cccc(-c2noc(-c3cccs3)n2)c1          %            -0.7
18  c1ccc(C(Cc2nc(-c3ccccn3)no2)c2ccccc2)cc1          %              -8
19        CCOC(=O)Cc1nnc(NC(=O)c2ncn[nH]2)s1          %             0.2
20  COc1cc2c(c(OC)c1)C(c1ccncc1)CC(=O)N2 (stereo unspecified)          %           -11.6
21  Cc1ccc(SC(C)c2nc(-c3ccccc3)no2)cc1 (stereo unspecified)          %            -7.5
22      CCOC(=O)C1CCN(Cc2ccc(OC)c(C)c2OC)CC1          %            -1.3
23  CCOC(=O)C1=C(C)OC(N)=C(C#N)C1c1ccoc1 (stereo unspecified)          %            -4.8
24  O=C(CCNS(=O)(=O)c1cccc2nsnc12)Nc1ccc2c(c1)OCCO2          %           -17.9
25  O=C(O)C1CC=CCC1C(=O)Nc1cccc(C(=O)N2CCCCC2)c1 (stereo unspecified)          %             6.1
26      CC(C)Cc1nnc(NC(=O)CCC(=O)N2CCOCC2)s1          %             8.1
27             O=C(Nc1ccc2c(c1)OCCO2)c1ccco1          %            -3.5
28  CS(=O)(=O)N1CCc2cc(S(=O)(=O)Nc3ccc4oc5c(c4c3)CCCC5)ccc21          %             7.3
29  O=C1NC(Cc2c[nH]c3ccccc23)C(=O)N1CCOc1ccccc1 (stereo unspecified)          %             4.9
30  Cc1ccc(C2C(C(=O)c3sc(C)nc3C)=C(O)C(=O)N2CCN(C)C)o1 (stereo unspecified)          %            -7.6
31  Cc1cc(C(=O)NCCN2CCCCC2C)n(-c2ccccc2)n1 (stereo unspecified)          %             0.6
32    Cc1cc(NCCN2CCCCC2)n2c(nc3ccccc32)c1C#N          %           -10.5
33            CC(=O)c1ccc(-c2nc3ccccc3n2C)o1          %             4.7
34  CCOC(=O)C1CCCN(CCCc2ccccc2)C1 (stereo unspecified)          %           -17.4
35   COc1ccccc1N(CC(=O)NCc1ccccn1)S(C)(=O)=O          %            -7.9

---

testTarget: Voltage-gated potassium channel subunit beta-2 (Rattus norvegicus) (UniProt P62483)
Sequence (P62483 whole entry, looked up): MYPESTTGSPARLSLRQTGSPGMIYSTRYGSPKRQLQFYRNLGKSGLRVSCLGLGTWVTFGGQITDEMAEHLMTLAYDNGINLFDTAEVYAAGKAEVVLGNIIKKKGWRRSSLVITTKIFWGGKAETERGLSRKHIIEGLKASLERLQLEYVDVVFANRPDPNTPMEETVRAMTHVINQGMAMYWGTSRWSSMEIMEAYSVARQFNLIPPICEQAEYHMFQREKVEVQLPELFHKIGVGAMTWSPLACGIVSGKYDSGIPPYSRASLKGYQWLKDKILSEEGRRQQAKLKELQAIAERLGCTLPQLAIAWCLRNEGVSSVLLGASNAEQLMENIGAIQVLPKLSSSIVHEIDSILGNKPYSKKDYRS
protocolText: enhancers of rat Kvbeta2 NADPH turnover – biochemical, NADPH fluorescence, primary screen (AID 623);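 further: fluorescence intensity change per second fitted from 20 to 320 s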
testContext: Recombinant KvBeta, NADPH fluorescence decrease slope, 10 min; at 10 µM; stronger effect = lower value
quantityKind: NADPH fluorescence slope

>>> df
                                   molecule              quantitykind  measurednumber
0  COc1cccc(C(=O)NCc2nnc(SCC(=O)Nc3nccs3)n2-c2ccccc2)c1  NADPH fluorescence slope         1.6e-05
1  COc1ccccc1N1C(=O)CC(Sc2nc(C)cc(C)n2)C1=O (stereo not given)  NADPH fluorescence slope        -9.1e-05
2                  Cc1cc(=O)n(CCO)c(O)c1C#N  NADPH fluorescence slope         8.2e-06
3      O=C(Cn1c(=O)sc2ccccc21)NCCOc1ccccc1F  NADPH fluorescence slope          -9e-06
4  COc1cccc(C2CC(=O)Nc3cc4c(cc32)OCCO4)c1OC(C)C (stereo not given)  NADPH fluorescence slope          -6e-05
